- protocol: Octanol-water partition coefficient, log P of the compound at 30 degC by HPLC analysis
- Format: physicochemical
- test_settings: read-out: logP
assay_readout: logP

compound	measured_result
C=C1CC[C@@H]2[C@](C)(CO)[C@H](O)CC[C@@]2(C)[C@@H]1C/C=C1/C(=O)OC[C@H]1O [ANDROGRAPHOLIDE]	0.52
C=C1CC[C@@H]2[C@](C)(COC(=O)/C=C/c3cc(OC)c(OC)c(OC)c3)[C@H](O)CC[C@@]2(C)[C@@H]1/C=C/C1=CCOC1=O	1.78

###

- Tested on: Hepatitis B virus
- protocol: Antiviral activity against HBV infected in human HepG2.2.15 cells assessed as inhibition of hepatitis B surface antigen secretion by ELISA
- Format: functional, organism-based
- test_settings: HepG2 2.2.15
pIC50: −log10 of the molar value.
// not satisfied strictly below 3 in pIC50; satisfied otherwise

compound	qualitative_label
C[C@H](Cn1cnc2c(N)ncnc21)OCP(=O)(O)O [TENOFOVIR ANHYDROUS]	not satisfied
C=C1CC[C@@H]2[C@](C)(CO)[C@H](OC(=O)/C=C/c3ccccc3)CC[C@@]2(C)[C@@H]1C/C=C1\C=COC1=O	satisfied
C=C1CC[C@@H]2[C@](C)(CO)[C@H](OC(=O)/C=C/c3cc(OC)c(OC)c(OC)c3)CC[C@@]2(C)[C@@H]1C/C=C1\C=COC1=O	satisfied
C=C1CC[C@H]2[C@@](C)(CCC(=O)[C@@]2(C)C=O)[C@@H]1/C=C/C1=CCOC1=O	satisfied
C=C1CC[C@@H]2[C@](C)(COC(=O)/C=C/c3cccc(Cl)c3)[C@H](O)CC[C@@]2(C)[C@@H]1/C=C/C1=CCOC1=O	satisfied
C=C1CC[C@@H]2[C@](C)(COC(=O)/C=C/c3cccc(OC)c3)[C@H](O)CC[C@@]2(C)[C@@H]1/C=C/C1=CCOC1=O	not satisfied
C=C1CC[C@@H]2[C@](C)(COC(=O)c3ccccc3C(=O)O)[C@H](O)CC[C@@]2(C)[C@@H]1C/C=C1\C=COC1=O	not satisfied

###

- protocol: Selectivity index, ratio of CC50 for human HepG2.2.15 cells to IC50 for HBV infected in human HepG2.2.15 cells assessed as inhibition of hepatitis B e antigen secretion
- Assay type: functional
Listing of entries alongside the reported Ratio CC50/IC50.
assay_readout: Ratio CC50/IC50

compound	assay_readout	lt_gt_eq	measured_result
C[C@H](Cn1cnc2c(N)ncnc21)OCP(=O)(O)O [TENOFOVIR ANHYDROUS]	Ratio CC50/IC50	>	1.4
C=C1CC[C@@H]2[C@](C)(COC(=O)c3cccnc3OC)[C@H](O)CC[C@@]2(C)[C@@H]1/C=C/C1=CCOC1=O	Ratio CC50/IC50	=	6.2
C=C1CC[C@@H]2[C@](C)(COC(=O)c3cc(=O)c4ccccc4o3)[C@H](O)CC[C@@]2(C)[C@@H]1/C=C/C1=CCOC1=O	Ratio CC50/IC50	=	1
C=C1CC[C@@H]2[C@](C)(COC(=O)/C=C/c3cc(OC)c(OC)c(OC)c3)[C@H](O)CC[C@@]2(C)[C@@H]1/C=C/C1=CCOC1=O	Ratio CC50/IC50	>	8.5
C=C1CC[C@@H]2[C@](C)(COC(=O)c3cccs3)[C@H](O)CC[C@@]2(C)[C@@H]1/C=C/C1=CCOC1=O	Ratio CC50/IC50	=	19.1
C=C1CC[C@@H]2[C@](C)(COC(=O)c3cccs3)[C@H](OC(=O)c3cccs3)CC[C@@]2(C)[C@@H]1/C=C/C1=CCOC1=O	Ratio CC50/IC50	>	1.8
C=C1CC[C@@H]2[C@](C)(CO)[C@H](O)CC[C@@]2(C)[C@@H]1/C=C/C1=CC(CO)(CO)OC1=O	Ratio CC50/IC50	=	1.1
C=C1CC[C@@H]2[C@](C)(COC(=O)c3ccccc3C(=O)O)[C@H](OC(=O)c3ccccc3C(=O)O)CC[C@@]2(C)[C@@H]1C/C=C1\C=COC1=O	Ratio CC50/IC50	>	9.4
C=C1CC[C@@H]2[C@](C)(COC(=O)/C=C/c3cccc(Cl)c3)[C@H](O)CC[C@@]2(C)[C@@H]1/C=C/C1=CCOC1=O	Ratio CC50/IC50	=	2.5

Source listed as ChEMBL document CHEMBL3259753.
